Provide the recorded growth for the entries that follow.
- Test system: PC-3 prostate
- experiment: NCI-60 one-dose screen, 48 h (100 = growth as untreated, 0 = no growth, -100 = all killed)
- experimental context: 10 µM unless noted
The panel holds about 83,000 compounds, 20% with a hit somewhere; the sample as a whole holds those more often.
Could you give me the number in %? Just the number is fine.

Per the record, COc1cc2c(=O)n(CCN)c3c4cc5c(cc4ccc3c2cc1OC)OCO5 has growth of -60.1

Per the record, CCNc1nc2ccc(Nc3ccnc4cc(Cl)ccc34)cc2[nH]1 has growth of 63.9

Per the record, CCCCCCCCO/N=C\c1c2c(O)c3c(O)c(C)c4c(c3c1O)C(=O)C(C)(O/C=C\C(OC)C(C)C(OC(C)=O)C(C)C(O)C(C)C(O)C(C)/C=C\C=C(\C)C(=O)N2)O4 (stereo unspecified) has growth of 13.1

Per the record, O=C1Nc2cc(Cl)ccc2/C1=C\c1c(-c2ccc(F)cc2)nc2ccccn12 has growth of 12.8

Per the record, N#Cc1c(-c2ccccc2)nc2c(c(-c3ccccc3)nn2-c2ccccc2)c1-c1ccc(O)cc1 has growth of 4.85

Per the record, COc1cc2c(c(OC)c1OC)-c1ccc(NNC(=S)N(Cc3cccc(C[N+](Cc4cccc(CNC56CC7CC(CC(C7)C5)C6)c4)(Cc4cccc(CNC56CC7CC(CC(C7)C5)C6)c4)Cc4cccc(CN(C(=S)NNc5ccc6c(cc5=O)[C@@H](NC(C)=O)CCc5cc(OC)c(OC)c(OC)c5-6)C56CC7CC(CC(C7)C5)C6)c4)c3)C34CC5CC(CC(C5)C3)C4)c(=O)cc1[C@@H](NC(C)=O)CC2 (stereo partly specified) has growth of 12.2

----------
- Test system: UACC-257 melanoma
- experiment: NCI-60 one-dose screen, 48 h (100 = growth as untreated, 0 = no growth, -100 = all killed)
- experimental context: 10 µM unless noted
Compounds without any hit were thinned out: in the full panel of roughly 83,000, 20% have a hit.
Recorded growth split into classes lower band = under 60%, central band = from 60% up to 90%, upper band = 90% and over

input: Kindly state the category for this compound: C=C1C(=O)O[C@H]2[C@H]1CC/C(CNC(=O)/C=C/c1cccc(OC)c1)=C\CC[C@@]1(C)O[C@@H]21
output: lower band

input: Kindly state the category for this compound: CN1CCC(=C(c2ccccc2)c2ccccc2)C(c2ccccc2)C1 (stereo not given)
output: upper band

input: Kindly state the category for this compound: COc1ccc(CC(C)=C(c2ccc(OCCN3CCCCCC3)cc2)c2ccc(OCCN3CCCCCC3)cc2)cc1
output: lower band

input: Kindly state the category for this compound: CCOC(=O)c1ccc2c(c1)ncn2-c1ccc(NC(=O)Nc2cccc(C)c2)cc1
output: upper band

input: Kindly state the category for this compound: Fc1ccc(-c2cn3c(nc4ccccc43)c(-c3ccccc3)n2)cc1
output: upper band

input: Kindly state the category for this compound: COC(=O)C1=C(C(=O)ON)[C@@H]2C=C[C@@]1([C@@H](Cc1ccccc1)Nc1ccccc1)O2
output: upper band

input: Kindly state the category for this compound: O=C(NNc1nc2c(F)cccc2n2cccc12)c1cnccn1
output: lower band

input: Kindly state the category for this compound: CC(Oc1ccc(C(=O)O)cc1C(F)(F)F)c1ccc(Oc2ccccc2)cn1 (stereo not given)
output: upper band

input: Kindly state the category for this compound: CC(=O)Nc1cccc(-c2ccc3c(c2)NC(=O)/C3=C\c2ccc[nH]2)c1
output: central band

input: Kindly state the category for this compound: CC1(C)CC(O)CCCCCCOc2c(CN)cccc2NC(=O)c2nc(cnc2N)-c2ccc(cc2)S1(=O)=O (stereo not given)
output: lower band

input: Kindly state the category for this compound: COc1ccc2c(c1)C(=O)CC(c1ccccc1OC)O2 (stereo not given)
output: upper band

input: Kindly state the category for this compound: COc1cc(/C=C\c2cc(/C=C\c3ccc(O)c(OC)c3)n(C(=O)COc3ccccc3)n2)ccc1O
output: lower band

input: Kindly state the category for this compound: COc1ccc(-c2nc(S(=O)(=O)c3ccccc3)c(S(=O)CC(=O)N3CCC(C)CC3)o2)cc1 (stereo not given)
output: central band

input: Kindly state the category for this compound: COc1cc(/C=C\c2cc(OC)c(OC)c(OC)c2)cc(NC(=O)/C=C/c2cc(OC)c(OC)c(OC)c2)c1OC
output: central band

input: Kindly state the category for this compound: CCOC(=O)c1cc(C#N)n2ccc3ccccc3c12
output: upper band

input: Kindly state the category for this compound: O=C(CCN1CCCC1)Nc1ccc2c(Nc3ccc(F)cc3)c3ccccc3nc2c1
output: lower band

input: Kindly state the category for this compound: O=C(N/N=C/c1cc2ccccc2n2nnnc12)Nc1ccccc1
output: upper band

----------
- Tested on: OVCAR-3 ovarian
- experiment: NCI-60 one-dose screen, 48 h
- experimental context: 10 µM unless noted
- Procedure: Growth inhibition of the OVCAR-3 human tumor cell line is measured as a screen for anti-cancer activity. Cells are grown in 96 well plates and exposed to the test compound for 48 hours. Compounds are tested at a single concentration, which is 10^-5 M for most compounds. The reported endpoint is percent growth (GI% or GIPRCNT), where numbers from 0 - 100% represent growth inhibition, and numbers from -100% - 0 represent cell death. For example, a value of 40 represents 60% growth inhibition. […]
About 83,000 compounds went through this panel and 20% of them were active in at least one assay; those are over-represented in the sample as a whole. Calls of active or inactive are those of the source. The calls were made as follows: active = growth percent below 10; inactive = the rest.
Outcome field: choose from active, inactive

input: Give the logged outcome of this assay for the following compound: Cc1ccc(/C=C(/C#N)n2nnc3cccc(F)c32)cc1
output: active

input: Give the logged outcome of this assay for the following compound: COc1ccc(C(=O)CC#N)cc1
output: inactive

input: Give the logged outcome of this assay for the following compound: CN(C)c1ccc(Nc2c3ccccc3nc3cc(NC(=O)CCN4CCCC4)ccc23)cc1
output: active

input: Give the logged outcome of this assay for the following compound: OCc1cnccc1NCCCOc1ccccc1
output: inactive

input: Give the logged outcome of this assay for the following compound: C=C1C(=O)O[C@H]2[C@H]1CC/C(CNC(=O)/C=C/c1ccccc1)=C\CC[C@@]1(C)O[C@@H]21
output: active

input: Give the logged outcome of this assay for the following compound: O=C(CCN1CCCC1)Nc1ccc2c(NCCCc3ccccc3)c3ccccc3nc2c1
output: active

input: Give the logged outcome of this assay for the following compound: Oc1ccc(C2c3ccccc3Oc3ccccc32)c2cccnc12
output: inactive

input: Give the logged outcome of this assay for the following compound: CCNc1nc2cc(Nc3ccnc4cc(Cl)ccc34)ccc2o1
output: inactive

input: Give the logged outcome of this assay for the following compound: CC(Sc1nc2ccccc2c(=O)n1CCc1ccc(S(N)(=O)=O)cc1)C(=O)Nc1ccc(Cl)cc1 (stereo not drawn)
output: inactive

input: Give the logged outcome of this assay for the following compound: COc1ccc(CNCCN2C(=O)c3ccc4c5c(ccc(c35)C2=O)C(=O)N(CCNCc2ccc(OC)c(OC)c2OC)C4=O)c(OC)c1OC
output: active

input: Give the logged outcome of this assay for the following compound: c1ccc(-c2c(-c3ccccc3)[n+](Cc3ccc4ccccc4c3)c(-c3cccc4ccccc34)n2Cc2ccc3ccccc3c2)cc1
output: active

input: Give the logged outcome of this assay for the following compound: COc1ccc(/C=C(\C#N)n2nc3cccc(F)c3n2)cc1
output: inactive

input: Give the logged outcome of this assay for the following compound: O=C(Nc1ncc(Cc2cc(Cl)ccc2Cl)s1)c1cccs1
output: inactive

input: Give the logged outcome of this assay for the following compound: COc1ccc(C(=O)c2cc(C)c(OC)c(C)c2)c(OC)c1OC(=O)C(Cl)Cl
output: active

input: Give the logged outcome of this assay for the following compound: CN(C)CCn1c2ccc(Br)cc2c2nc3ccccc3nc21
output: inactive

input: Give the logged outcome of this assay for the following compound: Oc1cccc(CCc2ccc(Oc3cc(CCc4cccc(O)c4)cc(O)c3O)cc2)c1
output: inactive

input: Give the logged outcome of this assay for the following compound: N=C1C(c2nc3ccccc3s2)=C(O)CN1c1cc(Cl)cc(Cl)c1
output: inactive

input: Give the logged outcome of this assay for the following compound: Cc1cc2nc3c4ccc(Br)cc4n(CCN(C)C)c3nc2cc1C
output: inactive

input: Give the logged outcome of this assay for the following compound: O=C(CCN1CCCC1)Nc1ccc2c(Nc3ccc(F)cc3)c3ccccc3nc2c1
output: active

input: Give the logged outcome of this assay for the following compound: Cc1cc2nc3c4cc([N+](=O)[O-])ccc4n(CCN(C)C)c3nc2cc1C
output: active

input: Give the logged outcome of this assay for the following compound: COc1cc(NCCCCCNC(C)(C)C)c2ncccc2c1
output: inactive

input: Give the logged outcome of this assay for the following compound: O=C1NN(C(=O)c2ccccc2)C(c2ccc(Cl)c(Cl)c2)=C/C1=C\c1ccc([N+](=O)[O-])cc1
output: inactive

input: Give the logged outcome of this assay for the following compound: O=Cc1cc2ccccc2nc1Oc1ccc(C(F)(F)F)cc1
output: inactive

input: Give the logged outcome of this assay for the following compound: CC1=C(C(=O)/C=C/c2ccc(N(C)C)cc2)C(c2ccccc2)NC(=S)N1 (stereo not drawn)
output: inactive

input: Give the logged outcome of this assay for the following compound: COc1ccc(C(=O)C2C(C#N)C(C#N)C3c4ccccc4C=CN23)cc1 (stereo not drawn)
output: inactive

input: Give the logged outcome of this assay for the following compound: COc1cccc(-c2nc3occn3c2-c2ccnc(NCCNS(=O)(=O)c3cccc4ccccc34)n2)c1
output: inactive

input: Give the logged outcome of this assay for the following compound: NC(=S)N1N=C(c2ccccc2)CC1c1cn(-c2ccccc2)nc1-c1ccc(OCc2ccccc2)cc1 (stereo not drawn)
output: inactive

input: Give the logged outcome of this assay for the following compound: Cc1nc2sccn2c1-c1nc2sccn2c1/C=C1/C(=O)Nc2ccccc21
output: active

input: Give the logged outcome of this assay for the following compound: COc1ccc(/C=C/c2nc(Nc3ccc(S(=O)(=O)Nc4cc(C)on4)cc3)c3ccccc3n2)cc1
output: inactive

input: Give the logged outcome of this assay for the following compound: O=C(CCN1CCCC1)c1ccc([N+](=O)[O-])cc1
output: inactive

input: Give the logged outcome of this assay for the following compound: CC(C)(C)[Si](C)(C)OC1[C@@H](O[Si](C)(C)C(C)(C)C)[C@@H](CNC(=O)NC(=O)CCl)O[C@H]1n1cnc2c(NC(=O)Nc3ccccc3)ncnc21 (stereo partly drawn)
output: active

input: Give the logged outcome of this assay for the following compound: Cc1cc2c(C(=O)NCC#N)cccc2n1-c1nc2c(c(NCc3ccccc3)n1)CCCC2
output: active

input: Give the logged outcome of this assay for the following compound: COc1ccc(C(=O)c2nc3ccccc3n2CC(=O)c2ccc(F)cc2)cc1
output: inactive

input: Give the logged outcome of this assay for the following compound: COc1ccc(C(=O)Nc2cccc(C3CCc4c(cc(OC)c(OC)c4OC)O3)c2)cc1 (stereo not drawn)
output: inactive

input: Give the logged outcome of this assay for the following compound: C/C(=N\NC(=O)CSc1nc2ccccc2c(=O)n1CCc1ccc(S(N)(=O)=O)cc1)c1ccccn1
output: inactive

input: Give the logged outcome of this assay for the following compound: O=C(c1ccccc1)N1N=C(c2ccc(-n3ccc(C(F)(F)F)n3)c(F)c2)CC1c1ccc[nH]1 (stereo not drawn)
output: inactive

input: Give the logged outcome of this assay for the following compound: CC1(C)CC[C@]2(C(=O)O)CC[C@]3(C)C(=CC[C@@H]4[C@@]5(C)Cc6c([nH]c7ccccc67)C(C)(C)[C@@H]5CC[C@]43C)[C@@H]2C1
output: inactive

input: Give the logged outcome of this assay for the following compound: CC(C)=CCC[C@](C)(O)[C@H]1CC[C@]2(C)[C@@H]1CC[C@@H]1[C@@]3(C)C/C(=C/c4ccccc4)C(=O)C(C)(C)[C@@H]3CC[C@]12C
output: inactive
